- test_description: in vivo
- stated_conditions: male, Sprague-Dawley, rat, serum, po, 100 mg/kg
property_name: AUC(0-t)
For clarity, give the value followed by its unit.

Query :: Determine its reported AUC(0-t): Oc1ccc2c3c1O[C@H]1[C@@H](O)CC[C@@]4(O)[C@@H](C2)N(CC2CCC2)CC[C@]314 [Nalbuphine, nalbuphine]
Result :: 357 ng·h/mL

----------
- Test system: UGT2B
- test_description: in vitro
- stated_conditions: male, Sprague-Dawley, rat, % Inhibition (Mean ± SD)
property_name: inhibition at 60 min, 8.5 µM (%)
Numbers only, in %.

compound=CC1(C)[C@@H](O[C@H]2O[C@H](C(=O)O)[C@@H](O)[C@H](O)[C@H]2O[C@@H]2O[C@H](C(=O)O)[C@@H](O)[C@H](O)[C@H]2O)CC[C@]2(C)[C@H]3C(=O)C=C4[C@@H]5C[C@@](C)(C(=O)O)CC[C@]5(C)CC[C@@]4(C)[C@]3(C)CC[C@@H]12 system_under_test=UGT2B quantity_unit=% readout_number=9.93

Look up inhibition at 60 min, 8.5 µM for the entries below, preserving their order.
1. O=C1CC(c2ccc(O)c(O)c2)Oc2cc(O)cc(O)c21 (stereo not drawn)
2. C=C(C)C1CC=C(C)CC1 (single isomer, unassigned; (+)) [(+)-limonene, (+)-Limonene]
3. O=C/C=C/c1ccccc1 [trans-cinnamaldehyde, Trans- Cinnamaldehyde]
4. C=CC(=C)CCC=C(C)C
5. O=c1c(-c2ccc(O)cc2)coc2c([C@@H]3O[C@H](CO)[C@@H](O)[C@H](O)[C@H]3O)c(O)ccc12

Result ::
-1.06
18.3
-6.97
16.8
3.92

Look up inhibition at 60 min, 8.5 µM for the entries below, preserving their order.
1. O=c1cc(-c2ccccc2)oc2c1ccc1ccccc12
2. O=c1cc(-c2ccc(O)cc2)oc2cc(O)cc(O)c12
3. O=c1cc(-c2ccccc2)oc2ccc3ccccc3c12

Result ::
[72.3, -26.7, 95.8]

Look up inhibition at 60 min, 8.5 µM for the entries below, preserving their order.
1. CC(=O)OCCCc1ccccc1 [3-phenylpropyl acetate, 3-Phenylpropyl Acetate]
2. COc1c(O)cc2oc(Oc3ccc(O)cc3)cc(=O)c2c1O

Result ::
[-26.3, 111]

Look up inhibition at 60 min, 8.5 µM for the entries below, preserving their order.
1. COc1ccc(C2CC(=O)c3c(O)cc(O)cc3O2)cc1O (stereo not drawn)
2. O=c1ccc2ccc(O)cc2o1
3. O=C(O)c1ccc(O)c(O)c1

Result ::
[51.7, -14.7, -20.2]

Look up inhibition at 60 min, 8.5 µM for the entries below, preserving their order.
1. CCCCCCCCCCCCO
2. CCCCCCCCCCCCCC(=O)OCC [ethyl myristate, Ethyl Myristate]
3. O=C(O)c1cc(O)c(O)c(O)c1
4. CC12CCC(CC1)C(C)(C)O2

Result ::
[14.4, -27.8, 15.8, -8.41]
